biological target: NDM-1 (Klebsiella pneumoniae, UniProt C7C422); type: biochemical; settings: cleavage of biapenem (100 uM) by NDM-1; read-out: Ki, Biapenem
Sequence (C7C422 29-270 limits assumed): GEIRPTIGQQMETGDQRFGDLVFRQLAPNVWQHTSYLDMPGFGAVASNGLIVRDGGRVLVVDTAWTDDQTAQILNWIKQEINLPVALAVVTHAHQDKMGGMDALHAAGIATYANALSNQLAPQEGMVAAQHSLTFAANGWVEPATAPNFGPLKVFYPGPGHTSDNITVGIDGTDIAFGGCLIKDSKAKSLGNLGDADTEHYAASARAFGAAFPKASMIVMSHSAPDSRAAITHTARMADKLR
Consider the following molecules; for each one, report its Ki.

Find the recorded Ki belonging to Nc1nnc(S[C@H]2Cc3cccc(C(=O)O)c3OB2O)s1 and report it. < 10 nM

Let us now turn to NC(=O)CS[C@H]1Cc2cccc(C(=O)O)c2OB1O > 100 nM

Param item: O=C(O)c1cccc2c1OB(O)[C@@H](Sc1nncs1)C2 10 to 100 nM

----------
molecular target: VIM-1 (Pseudomonas aeruginosa, UniProt A0A0F7KYQ8); details: cleavage of nitrocefin (200 uM) by VIM-1 supernatant
Quantity name: IC50

Fill in: IC50 of CC(=O)Nc1nnc(S[C@H]2Cc3cccc(C(=O)O)c3OB2O)s1 is ___ < 1 µM

Repeat for the following compound: O=C(O)c1cccc2c1OB(O)[C@@H](Sc1nccs1)C2 ≥ 1 µM

Input NC(=O)CCS[C@H]1Cc2cccc(C(=O)O)c2OB1O < 1 µM

The measurements presented in this section are drawn from patent US9241947B2.
